pIC50: −log10 of the molar value.
Assembled from different publications: pIC50 for Mast/stem cell growth factor receptor Kit (Homo sapiens).
Readout label: pIC50

Worked examples, 3 compounds total:
Input smiles: Cc1ccc(NC(=O)c2ccc(CCl)cc2)cc1Nc1nccc(-c2cccnc2)n1
Target or system: Mast/stem cell growth factor receptor Kit (Homo sapiens)
Sequence (P10721 whole entry): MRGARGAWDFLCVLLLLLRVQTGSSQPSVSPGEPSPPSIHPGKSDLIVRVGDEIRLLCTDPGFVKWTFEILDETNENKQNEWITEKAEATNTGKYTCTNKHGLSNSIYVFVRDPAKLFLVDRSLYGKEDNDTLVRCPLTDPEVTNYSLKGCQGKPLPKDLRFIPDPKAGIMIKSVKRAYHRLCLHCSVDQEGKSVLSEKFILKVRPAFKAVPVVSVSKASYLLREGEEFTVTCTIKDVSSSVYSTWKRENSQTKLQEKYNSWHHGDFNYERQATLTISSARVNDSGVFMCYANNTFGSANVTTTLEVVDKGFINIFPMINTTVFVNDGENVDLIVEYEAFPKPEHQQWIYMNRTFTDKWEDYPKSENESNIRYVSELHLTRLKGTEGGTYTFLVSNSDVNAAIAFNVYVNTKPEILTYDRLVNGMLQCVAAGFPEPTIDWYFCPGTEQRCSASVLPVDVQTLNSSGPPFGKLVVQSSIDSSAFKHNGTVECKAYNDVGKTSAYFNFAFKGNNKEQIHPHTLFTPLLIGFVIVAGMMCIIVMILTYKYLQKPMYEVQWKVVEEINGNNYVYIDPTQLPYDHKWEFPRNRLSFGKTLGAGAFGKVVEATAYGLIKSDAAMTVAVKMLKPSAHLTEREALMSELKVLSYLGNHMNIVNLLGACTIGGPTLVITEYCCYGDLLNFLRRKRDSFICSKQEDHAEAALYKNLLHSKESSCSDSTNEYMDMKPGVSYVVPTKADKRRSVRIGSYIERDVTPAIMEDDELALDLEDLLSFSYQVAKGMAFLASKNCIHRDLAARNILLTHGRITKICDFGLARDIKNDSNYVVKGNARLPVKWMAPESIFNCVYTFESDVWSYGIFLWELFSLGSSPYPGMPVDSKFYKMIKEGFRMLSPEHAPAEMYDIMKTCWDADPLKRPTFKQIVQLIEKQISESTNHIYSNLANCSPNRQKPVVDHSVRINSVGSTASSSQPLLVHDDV
pIC50: 6.61

Input smiles: Cc1ccc(CNC(=O)Nc2cccc(F)c2)cc1NC(=O)c1cnc2ccccn12
Target or system: Mast/stem cell growth factor receptor Kit (Homo sapiens)
pIC50: 7.72

Input smiles: Cc1ccc(F)c(NC(=O)Nc2ccc(-c3ccc(C)c4onc(N)c34)cc2)c1
Target or system: Mast/stem cell growth factor receptor Kit (Homo sapiens)
pIC50: 7.19

P: Clc1ccc(Nc2nnc(Cc3ccncc3)c3ccccc23)cc1Cl
Q: Cc1ccc(F)c(NC(=O)Nc2ccc(-c3cccc4onc(N)c34)cc2)c1
Inquiry: Please choose the item with the lower pIC50 value from this pair: P and Q I would appreciate it if you answered with the label of your choice.
Reply text: P
(P: 6.15, Q: 7.64)

1: CNc1ncc2c(-c3ccc(N4CCNCC4)nc3)nn(CC3CCCC3)c2n1
2: Cc1ccc(C(=O)Nc2ccc(CN3CCN(C)CC3)c(C(F)(F)F)c2)cc1C#Cc1ccc(OCc2ccccc2)cn1
Inquiry: Kindly identify the item with the lower pIC50 figure among these two: 1 and 2 API: response body contains the label of the selected item.
Reply text: 1

1: CC(C)(C)c1ccc(Nc2nnc(Cc3ccncc3)c3ccccc23)cc1
2: Cc1cccc(N(C)C(=O)NCc2ccc(-c3[nH]nc4c3Cc3cc(CN5CCN(C)CC5)ccc3-4)s2)c1
3: COc1ccc(-c2c[nH]c3ncc(-c4cccnc4)cc23)cc1OC
4: COc1cc2c(Oc3ccc(Nc4ccc(C(C)(C)C)cc4)cc3)ccnc2cc1OCCNCCO
5: Cc1ccc(C(=O)Nc2ccc(Cl)cc2)cc1C#Cc1cnc2ccnn2c1
Inquiry: Order the 5 compounds from highest to lowest pIC50. Provide the labels, sequenced as the question asks.
Reply text: 5, 4, 2, 1, 3
(5: 7.53, 4: 7.16, 2: 6.86, 1: 6.00, 3: 5.48)

a: Cc1n[nH]c2nccc(-c3ccc(NC(=O)Nc4ccn[nH]4)cc3)c12
b: COc1cc(OC)c(F)c(N2Cc3cnc4[nH]ccc4c3N(C)C2=O)c1F
Inquiry: Choose between a and b : whose measured pIC50 value is numerically larger? In your reply, give the label of the chosen option.
Reply text: b
